B1: CDC25A (parent)
chain: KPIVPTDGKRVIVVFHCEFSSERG

# Variants of: B1
# assay-method-text: protein stability index of a GFP-peptide fusion (GPS, HEK-293T) (PSI 1-6); higher = more stable;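 also: lentivirally expressed fusions sorted by FACS into six bins by GFP to DsRed ratio, PSI derived from sequencing read proportions per bin multiplied by bin number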
# recorded-conditions: c terminus: a fixed tail appended
Threshold rule: protein stability index greater than or equal to 3 is T; below that, F.

Illustrative cases are given below, each with its answer.
variant-id | discrete-label
E22A | F
T6L | F
E22T | F
H16V | F
I3M | F
F15N | T

[ask] Evaluate F15Q : protein stability index at minimum 3?
[reply] T

[ask] Hello, I need to know if S20T has measured protein stability index not below 3. Thanks!
[reply] F

[ask] // inclusive: protein stability index at least 3? input: H16P
[reply] F

[ask] Assess whether reported protein stability index for P2D sits at 3 or higher.
[reply] F

[ask] Reported protein stability index reaches at least 3 for V4W ?
[reply] F

[ask] // inclusive: protein stability index at least 3? input: R10D
[reply] F
